Test system: HEK-293T
Assay: Multiplex assay against HEK293T
Format: toxicity, cell-based
Settings: human, 48 h, 10 µM, compound concentration 10 uM, replicate 2
Label rule, in plain words: Population Apoptotic (%) of 70% and up is T, under 70% is F.

As a guide, the following entries are already answered.
{"columns": ["compound", "class"],
 "data": [
  ["CCC(=O)O[C@]1(C(=O)SCF)[C@H](C)C[C@H]2[C@@H]3C[C@H](F)C4=CC(=O)C=C[C@]4(C)[C@@]3(F)[C@@H](O)C[C@@]21C [FLUTICASONE PROPIONATE]", "F"],
  ["Nc1ccc(C(=O)Nc2cccc(-c3nc(N4CCOCC4)c4oc5ncccc5c4n3)c2)cn1", "T"],
  ["CC(=O)c1cc(-c2cc(C(=O)NC3CC3)ccc2C)c2ncccn12", "F"],
  ["COc1ccc(NS(=O)(=O)c2sc3ccc(Cl)cc3c2C)cc1N1CCNCC1.Cl", "T"],
  ["CC(C)N1CCC(C)(C)c2cc(C#Cc3ccc(C(=O)O)cc3)ccc21", "F"]
]}

(Q) Please indicate if the recorded Population Apoptotic (%) for `Nc1nc2c(c(N3CCNCC3)n1)CCC1=C2[C@@H]2CCCC[C@@H]2O1` meets or exceeds 70%.
(A) T

(Q) Please indicate if the recorded Population Apoptotic (%) for `Cl.Cl.Nc1ncnc2c1c(-c1cccc(OCc3ccccc3)c1)cn2[C@H]1C[C@@H](CN2CCC2)C1` meets or exceeds 70%.
(A) T

(Q) Please indicate if the recorded Population Apoptotic (%) for CCCn1c(=O)c2[nH]c(C34CC5CC(CC3C5)C4)nc2n(CCC)c1=O [ROLOFYLLINE] meets or exceeds 70%.
(A) F

(Q) Please indicate if the recorded Population Apoptotic (%) for CCc1cc2c(cc1CC)CC(NC[C@H](O)c1ccc(O)c3[nH]c(=O)ccc13)C2 [INDACATEROL] meets or exceeds 70%.
(A) T

(Q) Please indicate if the recorded Population Apoptotic (%) for `CNc1oc(-c2cccc3ccccc23)nc1C#N` meets or exceeds 70%.
(A) F

(Q) Please indicate if the recorded Population Apoptotic (%) for CCn1c(-c2nonc2N)nc2cnc(Oc3cccc(NC(=O)c4ccc(OCCN5CCOCC5)cc4)c3)cc21 [GSK-269962A] meets or exceeds 70%.
(A) T

(Q) Please indicate if the recorded Population Apoptotic (%) for `Cc1cc2c(cc1N1C(=O)c3cccc4c(CCCO)ccc(c34)C1=O)n(C)c(=O)n2C` meets or exceeds 70%.
(A) F

(Q) Please indicate if the recorded Population Apoptotic (%) for O=C(O)c1ccc2cc(-c3ccc(O)c(C45CC6CC(CC(C6)C4)C5)c3)ccc2c1 [O-DEMETHYLATED ADAPALENE] meets or exceeds 70%.
(A) F

###

Test system: U2OS
Assay: Incucyte cell viability with U2OS; note: filed as whole numbers so only -1 and 0 and 1 occur
Assay type: toxicity, cell-based
Conditions: human, 12 h, 10 µM, compound concentration 10 uM, replicate number 1, timepoint 12 hours
measured attribute: Growth Rate
Just the number.

{"columns": ["compound", "Growth Rate"],
 "data": [
  ["COc1cc2c(cc1-c1c(C)noc1C)ncc1[nH]c(=O)n([C@H](C)c3ccccn3)c12", 1],
  ["CCCc1cc(C)[nH]c(=O)c1CNC(=O)c1cc(-c2ccnc(N3CCN(C)CC3)c2)cc2c1cnn2C(C)C", 1],
  ["Oc1ccc(-c2nc3cc(O)cc(Br)c3o2)cc1", 1],
  ["Cl.Cl.NC1(c2ccc(-c3nc4ccn5c(=O)[nH]nc5c4cc3-c3ccccc3)cc2)CCC1", 1],
  ["N#Cc1cnc(Nc2cc(NC[C@H]3CNCCO3)c(C(F)(F)F)cn2)cn1 [SRA-737]", 0]
]}

(Q) Need Growth Rate of CC(C)NCC(O)c1ccc(N)c(C#N)c1 (stereo unspecified) [CIMATEROL] , thanks.
(A) 1
